These entries and their values trace back to ChEMBL document CHEMBL3259753.

What IC50 was measured for each of the following?
Tested on: Hepatitis B virus
assay_procedure: Antiviral activity against HBV infected in human HepG2.2.15 cells assessed as inhibition of hepatitis B surface antigen secretion by ELISA
Format: functional, organism-based
condition_summary: HepG2 2.2.15
Give just the numeric value; µM need not be written.

Measured IC50, `C=C1CC[C@@H]2[C@](C)(COC(=O)c3cccs3)[C@H](O)CC[C@@]2(C)[C@@H]1/C=C/C1=CCOC1=O` : 162

Measured IC50, `C=C1CC[C@@H]2[C@](C)(CO)[C@H](OC(C)=O)CC[C@@]2(C)[C@@H]1C/C=C1\C=COC1=O` : 318

Measured IC50, `C=C1CC[C@@H]2[C@](C)(COC(C)=O)[C@H](OC(C)=O)CC[C@@]2(C)[C@@H]1/C=C/C1=CCOC1=O` : 1010

Measured IC50, `C[C@]1(CO)[C@H]2CC[C@@]3(CO3)[C@@H](/C=C/C3=CCOC3=O)[C@]2(C)CC[C@H]1O` : 1290
